Source: patent US10028961B2

Listed next: entries and their corresponding IC50.
- Test system: HT1080 cells
- TEST METHOD NOTES: Cellular assay for IDH1m R132C inhibitors, 2-HG by LC-MS in HT1080 cells
- Assay type: cell-based
- CONDITION SUMMARY: Homo sapiens, HT-1080
- Method: The following describes the experimental procedures that can be used to obtain data on column 5 of Table 4. Cells (HT1080 or U87MG) are grown in T125 flasks in DMEM containing 10% FBS, 1× penicillin/streptomycin and 500 ug/mL G418 (present in U87MG cells only). […] At 48 hours, 100 ul of media is removed from each well and analyzed by LC-MS for 2-HG concentrations. […] The plate is then read for luminescence with an integration time of 500 ms. […]

{"columns": ["MOLECULE", "TESTED SYSTEM", "IC50"],
 "data": [
  ["CC(C)(O)CNc1nc(Nc2cc(F)cc(F)c2)nc(-n2ccc(C(F)(F)F)n2)n1", "HT1080 cells", "100 to 1000 nM"],
  ["N#CC1(c2cc(Nc3nc(NC4CC5(C4)CC(F)(F)C5)nc(-c4cncc(C(F)(F)F)n4)n3)ccn2)CC1", "HT1080 cells", "100 to 1000 nM"],
  ["N#Cc1cc(Nc2nc(N[C@H]3CCC(F)(F)C3)nc(-n3ccc(C(F)(F)F)n3)n2)ccn1", "HT1080 cells", "100 to 1000 nM"],
  ["FC(F)c1cncc(-c2nc(NC3CCC(F)(F)C3)nc(NC3CCC(F)(F)C3)n2)n1 (stereo not drawn)", "HT1080 cells", "< 50 nM"],
  ["C[C@@H](Nc1nc(N[C@H](C)C2CC2)nc(-c2cccc(O)c2)n1)C1CC1", "HT1080 cells", "50 to 100 nM"],
  ["FC1(F)CCC(Nc2nc(NC3CC4(C3)CC(F)(F)C4)nc(-c3cccc(C(F)(F)F)n3)n2)C1 (stereo not drawn)", "HT1080 cells", "100 to 1000 nM"],
  ["O=C(c1ccccc1)N1CCC(Nc2nc(NC3CCC(F)(F)C3)nc(-c3cccc(C(F)(F)F)n3)n2)C1 (stereo not drawn)", "HT1080 cells", "100 to 1000 nM"],
  ["FC1(F)CCC(Nc2nc(Nc3ccnc(C(F)(F)F)c3)nc(-c3cncc(C(F)(F)F)n3)n2)CC1", "HT1080 cells", "100 to 1000 nM"],
  ["FC1(F)CCC(Nc2nc(Nc3ccnc(C(F)(F)F)c3)nc(-c3cccc(Cl)n3)n2)C1 (stereo not drawn)", "HT1080 cells", "100 to 1000 nM"],
  ["C[C@@H](Nc1nc(N[C@H](C)C2CC2)nc(-c2nccc(C(F)(F)F)n2)n1)C1CC1", "HT1080 cells", "100 to 1000 nM"],
  ["FC1(F)CC[C@@H](Nc2nc(N[C@@H]3CCC(F)(F)C3)nc(-c3cccc(C(F)(F)F)n3)n2)C1", "HT1080 cells", "< 50 nM"],
  ["FC1(F)CCC(Nc2nc(NC3CCC(F)(F)C3)nc(-c3cccc(Cl)n3)n2)C1 (stereo not drawn)", "HT1080 cells", "< 50 nM"],
  ["FC1(F)CCC(Nc2nc(NC3CCC(F)(F)CC3)nc(-n3ccc(C(F)(F)F)n3)n2)CC1", "HT1080 cells", "100 to 1000 nM"],
  ["Nc1ccc(F)c(-c2nc(NC3CCC(F)(F)CC3)nc(NC3CCC(F)(F)CC3)n2)n1", "HT1080 cells", "100 to 1000 nM"],
  ["FC(F)(F)c1cc(Nc2nc(NCC3CC3)nc(-n3ccc(C(F)(F)F)n3)n2)ccn1", "HT1080 cells", "100 to 1000 nM"]
]}

* * *

Listed next: entries and their corresponding IC50.
- System: U87MG pLVX-IDH2 R140Q-neo cells
- TEST METHOD NOTES: U87MG pLVX-IDH2 R140Q-neo cell based assay, 2-HG by LC-MS
- CONDITION SUMMARY: Homo sapiens, U-87 MG

{"columns": ["COMPOUND", "IC50"],
 "data": [
  ["CC(F)(F)c1cccc(-c2nc(Nc3ccnc(C4(C#N)CC4)c3)nc(NC3CCC(F)(F)CC3)n2)n1 [Compound 211]", "< 0.05 µM"],
  ["FC1(F)CC[C@@H](Nc2nc(N[C@@H]3CCC(F)(F)C3)nc(-c3cccc(C(F)(F)F)n3)n2)C1 [Compound 111]", "< 0.05 µM"],
  ["Fc1cc(F)cc(Nc2nc(NC3CCC(F)(F)C3)nc(-n3ccc(C(F)(F)F)n3)n2)c1 (stereo not drawn) [Compound 108]", "< 0.05 µM"],
  ["C=CCCNc1nc(NCCC=C)nc(-c2ccccc2)n1 [Compound 70]", "0.05 to 0.1 µM"],
  ["CC(C)(O)CNc1nc(Nc2cc(F)cc(C(F)(F)F)c2)nc(-c2cccc(C(C)(F)F)n2)n1 [Compound 397]", "< 0.05 µM"],
  ["CC(C)(O)CNc1nc(Nc2cc(F)cc(C#N)c2)nc(-c2cccc(C(F)(F)F)n2)n1 [Compound 244]", "< 0.05 µM"],
  ["N#Cc1cc(F)cc(Nc2nc(NC3CC(F)(F)C3)nc(-c3cccc(C(F)(F)F)n3)n2)c1 [Compound 154]", "< 0.05 µM"],
  ["C[C@@H](Nc1nc(N[C@H](C)C(F)(F)F)nc(-c2cccc(Cl)n2)n1)C(F)(F)F [Compound 101]", "< 0.05 µM"],
  ["FC1(F)CCC(Nc2nc(NC3CCC(F)(F)CC3)nc(-n3ccc(C(F)(F)F)n3)n2)CC1 [Compound 176]", "< 0.05 µM"],
  ["N#Cc1cc(Nc2nc(NC3CCC(F)(F)C3)nc(-c3cccc(C(F)(F)F)n3)n2)ccn1 (stereo not drawn) [Compound 181]", "< 0.05 µM"],
  ["CC(F)(F)c1nc(-c2nc(NC3CCC(F)(F)CC3)nc(NC3CCC(F)(F)CC3)n2)cs1 [Compound 283]", "0.1 to 1 µM"],
  ["FC1(F)CCC(Nc2nc(Nc3ccnc(-c4ccccc4)c3)nc(-c3cccc(C(F)(F)F)n3)n2)CC1 [Compound 220]", "0.05 to 0.1 µM"],
  ["FC1(F)CCC(Nc2nc(Nc3ccnc(C(F)(F)F)c3)nc(-c3cccc(C(F)(F)F)n3)n2)C1 (stereo not drawn) [Compound 178]", "< 0.05 µM"],
  ["FC1(F)CC2(CC(Nc3nc(Nc4ccnc(C(F)(F)F)c4)nc(-c4cncc(C(F)(F)F)n4)n3)C2)C1 [Compound 380]", "< 0.05 µM"],
  ["FC1(F)CCC(Nc2nc(Nc3ccnc(C(F)(F)F)c3)nc(-c3cccc(C(F)(F)F)n3)n2)CC1 [Compound 192]", "< 0.05 µM"]
]}

* * *

Listed next: entries and their corresponding IC50.
- TESTED SYSTEM: IDH2 R140Q (Homo sapiens (Human), UniProt P48735, R140Q)
- Sequence (P48735 40-452 R140Q): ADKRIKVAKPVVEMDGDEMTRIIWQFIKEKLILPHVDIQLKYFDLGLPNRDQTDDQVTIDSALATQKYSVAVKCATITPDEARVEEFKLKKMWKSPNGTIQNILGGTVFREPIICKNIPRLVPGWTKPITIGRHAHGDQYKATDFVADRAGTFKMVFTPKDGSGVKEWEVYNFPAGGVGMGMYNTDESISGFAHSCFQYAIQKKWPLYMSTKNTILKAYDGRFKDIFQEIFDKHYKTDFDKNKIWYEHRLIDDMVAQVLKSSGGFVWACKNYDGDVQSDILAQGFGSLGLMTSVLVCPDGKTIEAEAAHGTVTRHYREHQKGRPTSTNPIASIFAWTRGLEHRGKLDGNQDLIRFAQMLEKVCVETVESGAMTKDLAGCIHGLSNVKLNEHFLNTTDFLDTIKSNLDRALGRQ
- TEST METHOD NOTES: In vitro assay for IDH2m R140Q inhibitors, cofactor depletion assay
- Assay type: biochemical
- CONDITION SUMMARY: IDH2 R140Q enzyme
- Description: The following describes the experimental procedures used to obtain data on column 7 of Table 4. The reaction is terminated by the addition of a second enzyme, diaphorase, and a corresponding substrate, resazurin. […]

{"columns": ["MOLECULE", "IC50"],
 "data": [
  ["CC[C@H](Nc1nc(N[C@H](CC)C(F)(F)F)nc(-c2cccc(Cl)n2)n1)C(F)(F)F", "50 to 100 nM"],
  ["Fc1cc(F)cc(Nc2nc(NC3CCC(F)(F)C3)nc(-n3ccc(C(F)(F)F)n3)n2)c1 (stereo not drawn)", "< 50 nM"],
  ["N#CC1(c2cc(Nc3nc(NC4CC(F)(F)C4)nc(-c4cccc(C(F)(F)F)n4)n3)ccn2)CC1", "< 50 nM"],
  ["CC[C@H](Nc1nc(N[C@@H](CC)C(F)(F)F)nc(-c2cccc(Cl)n2)n1)C(F)(F)F", "50 to 100 nM"],
  ["CC[C@H](Nc1nc(N[C@@H](CC)C(F)(F)F)nc(-c2ccnc(C(F)(F)F)n2)n1)C(F)(F)F", "100 to 1000 nM"],
  ["FC(F)c1csc(-c2nc(NC3CCC(F)(F)CC3)nc(NC3CCC(F)(F)CC3)n2)n1", "< 50 nM"],
  ["FC(F)c1cncc(-c2nc(NC3CC(F)(F)C3)nc(NC3CC(F)(F)C3)n2)n1", "< 50 nM"],
  ["N#CC1(c2cc(Nc3nc(N[C@@H]4CCC(F)(F)C4)nc(-n4ccc(C(F)(F)F)n4)n3)ccn2)CC1", "< 50 nM"],
  ["FC1(F)CC(Nc2nc(NC3CC(F)(F)C3)nc(-c3nc(C(F)(F)F)cs3)n2)C1", "< 50 nM"],
  ["CC(F)(F)c1cccc(-c2nc(NC3CCC(F)(F)CC3)nc(NC3CCC(F)(F)CC3)n2)n1", "< 50 nM"],
  ["C[C@@H](Nc1nc(NC(C2CC2)C2CC2)nc(-c2cccc(C(F)(F)F)n2)n1)C1CC1", "< 50 nM"],
  ["Fc1ccc([C@H]2C[C@@H](Nc3nc(N[C@H]4C[C@@H](c5ccc(F)cc5)C4)nc(-c4cccc(C(F)(F)F)n4)n3)C2)cc1", "100 to 1000 nM"],
  ["FC(F)c1cncc(-c2nc(NC3CCC(F)(F)CC3)nc(NC3CCC(F)(F)CC3)n2)n1", "< 50 nM"],
  ["CC(C)CNc1nc(NC2CCOCC2)nc(-c2cccc(C(F)(F)F)n2)n1", "50 to 100 nM"],
  ["Fc1cc(F)cc(Nc2nc(NC3CC(F)(F)C3)nc(-c3cncc(Cl)n3)n2)c1", "< 50 nM"],
  ["CC(C)(C#N)CNc1nc(Nc2ccnc(C(C)(F)F)c2)nc(-c2cccc(C(F)(F)F)n2)n1", "< 50 nM"],
  ["CC(Nc1nc(NC(C)C(F)(F)F)nc(-c2nc(C(F)(F)F)cs2)n1)C(F)(F)F (stereo not drawn)", "< 50 nM"],
  ["C[C@@H](Nc1nc(N[C@H](C)C2CC2)nc(-c2nccc(C(F)(F)F)n2)n1)C1CC1", "50 to 100 nM"],
  ["C[C@@H](Nc1nc(N[C@H](C)C2CC2)nc(-n2ccc(C(F)(F)F)n2)n1)C1CC1", "< 50 nM"],
  ["FC1(F)CCC(Nc2nc(NC3CCN(c4ncccn4)C3)nc(-c3cccc(C(F)(F)F)n3)n2)C1 (stereo not drawn)", "100 to 1000 nM"],
  ["CC(Nc1nc(NC(C)C(F)(F)F)nc(-c2cncc(Cl)n2)n1)C(F)(F)F (stereo not drawn)", "< 50 nM"],
  ["FC1(F)CC2(CC(Nc3nc(Nc4ccnc(C(F)(F)F)c4)nc(-c4cccc(C(F)(F)F)n4)n3)C2)C1", "< 50 nM"],
  ["N#CC1(c2cc(Nc3nc(N[C@H]4CCC(F)(F)C4)nc(-c4ccnc(C(F)(F)F)n4)n3)ccn2)CC1", "< 50 nM"],
  ["N#CC1(c2cc(Nc3nc(N[C@@H]4CCC(F)(F)C4)nc(-c4nccc(C(F)(F)F)n4)n3)ccn2)CC1", "< 50 nM"],
  ["CC(F)(F)c1nc(-c2nc(NC3CCC(F)(F)CC3)nc(NC3CCC(F)(F)CC3)n2)cs1", "100 to 1000 nM"],
  ["C[C@@H](Nc1nc(N[C@H](C)C2CC2)nc(-c2cccc3[nH]ccc23)n1)C1CC1", "50 to 100 nM"],
  ["CC(C)(CC#N)Nc1nc(Nc2ccnc(C(C)(F)F)c2)nc(-c2cccc(C(F)(F)F)n2)n1", "< 50 nM"],
  ["Nc1ccc(F)c(-c2nc(NC3CCC(F)(F)CC3)nc(NC3CCC(F)(F)CC3)n2)n1", "< 50 nM"],
  ["C[C@@H](Nc1nc(N[C@H](C)C(F)(F)F)nc(-c2ccnc(C(F)(F)F)n2)n1)C(F)(F)F", "50 to 100 nM"],
  ["FC1(F)CCC(Nc2nc(NC3CCC(F)(F)C3)nc(-c3cccc(Cl)n3)n2)C1 (stereo not drawn)", "< 50 nM"]
]}
